assay: PK analysis after intravenous administration in SD rats; type: in vivo, rat; settings: male, rat, plasma, 5 mg/kg
metric_name: AUC(0-t) (ng·h/mL)
Answer in ng·h/mL, number only, no unit symbol.

AUC(0-t) reported for this compound CNC(=O)CC1C(=O)NCCN1Cc1ccc(-c2ccccc2-c2cccc3c2CN(C)C3=O)o1 (stereo not shown) [NCD] : 632

====

assay: PK analysis after intravenous administration in SD rats; type: in vivo, rat; settings: male, rat, plasma, 20 mg/kg
metric_name: AUC(0-t) (ng·h/mL)
Answer in ng·h/mL, number only, no unit symbol.

AUC(0-t) reported for this compound CNC(=O)CC1C(=O)NCCN1Cc1ccc(-c2ccccc2-c2cccc3c2CN(C)C3=O)o1 (stereo not shown) : 4530

====

assay: PK analysis after intravenous administration in SD rats; assay type: in vivo, rat; conditions: male, rat, plasma, 20 mg/kg
metric_name: Cmax (ng/mL)
Answer in ng/mL, number only, no unit symbol.

Cmax reported for this compound CNC(=O)CC1C(=O)NCCN1Cc1ccc(-c2ccccc2-c2cccc3c2CN(C)C3=O)o1 (stereo not shown) : 4150

====

target: BRD2 BD1 (Homo sapiens); construct: biotinylated BRD2 BD1; biotin (biotinylated protein); assay: Biosensor binding kinetics assay (Octet), BRD2 BD1
Sequence (P25440 74-180 limits assumed): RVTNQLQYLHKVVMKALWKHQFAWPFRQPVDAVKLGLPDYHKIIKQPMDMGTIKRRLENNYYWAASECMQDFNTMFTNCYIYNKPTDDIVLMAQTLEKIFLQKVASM
metric_name: Kd (nM)
Answer in nM, number only, no unit symbol.

Field Kd (BRD2 BD1 (Homo sapiens)), entry CNC(=O)CC1C(=O)NCCN1Cc1ccc(-c2ccccc2-c2cccc3c2CN(C)C3=O)o1 (stereo not shown) [NCD] : 26

====

target: BRD4 BD2 (Homo sapiens, UniProt O60885); construct: BRD3 BD2, BRD4 BD1, BRD4 BD2; biotin (biotinylated protein); assay: Biosensor binding kinetics assay (Octet), BRD4 BD2
metric_name: Kd

Kd reported for this compound CNC(=O)CC1C(=O)NCCN1Cc1ccc(-c2ccccc2-c2cccc3c2CN(C)C3=O)o1 (stereo not shown) : > 1000 nM

====

test: PK analysis after intravenous administration in SD rats; assay type: in vivo, rat; conditions: male, rat, plasma, 5 mg/kg
metric_name: half-life
Just so you know, I need the unit written after the number.

half-life reported for this molecule CNC(=O)CC1C(=O)NCCN1Cc1ccc(-c2ccccc2-c2cccc3c2CN(C)C3=O)o1 (stereo not shown) : 24.6 min
